STUDY TARGET: ABA receptor (Homo sapiens, UniProt Q9NS86)
Construct: endogenous in cells
Sequence (Q9NS86 1-450): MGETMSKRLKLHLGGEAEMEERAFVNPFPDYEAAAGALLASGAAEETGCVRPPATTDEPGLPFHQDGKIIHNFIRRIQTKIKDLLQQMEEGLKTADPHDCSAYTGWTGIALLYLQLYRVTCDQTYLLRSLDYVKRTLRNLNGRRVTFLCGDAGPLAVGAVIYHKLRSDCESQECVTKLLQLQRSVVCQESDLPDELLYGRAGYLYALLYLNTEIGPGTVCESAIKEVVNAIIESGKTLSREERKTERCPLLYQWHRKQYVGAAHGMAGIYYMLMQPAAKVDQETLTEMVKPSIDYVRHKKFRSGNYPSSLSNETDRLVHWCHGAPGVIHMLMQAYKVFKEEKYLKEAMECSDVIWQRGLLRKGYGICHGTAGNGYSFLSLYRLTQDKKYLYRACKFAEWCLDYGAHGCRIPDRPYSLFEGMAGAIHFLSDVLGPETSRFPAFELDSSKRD
METHOD NOTES: Competition binding with [^3H]-ABA on human granulocytes
TEST SETTINGS: Cheng-Prusoff, [ABA] =10 nM, KD ABA = 11 nM; 95% confidence intervals 0.25 nM to 0.83 nM; read-out: inhibition constant Ki
RECORDED METRIC: Ki
I'd appreciate it if you wrote the number followed by its unit.

The recorded Ki for entry CC(=C/C(=O)O)/C=C/C1(O)C(C)(C)CC(=O)C2OC21C (stereo not shown) equals 0.46 nM

====

STUDY TARGET: ABA receptor (Homo sapiens)
Construct: endogenous in cells
Sequence (Q9NS86 1-450): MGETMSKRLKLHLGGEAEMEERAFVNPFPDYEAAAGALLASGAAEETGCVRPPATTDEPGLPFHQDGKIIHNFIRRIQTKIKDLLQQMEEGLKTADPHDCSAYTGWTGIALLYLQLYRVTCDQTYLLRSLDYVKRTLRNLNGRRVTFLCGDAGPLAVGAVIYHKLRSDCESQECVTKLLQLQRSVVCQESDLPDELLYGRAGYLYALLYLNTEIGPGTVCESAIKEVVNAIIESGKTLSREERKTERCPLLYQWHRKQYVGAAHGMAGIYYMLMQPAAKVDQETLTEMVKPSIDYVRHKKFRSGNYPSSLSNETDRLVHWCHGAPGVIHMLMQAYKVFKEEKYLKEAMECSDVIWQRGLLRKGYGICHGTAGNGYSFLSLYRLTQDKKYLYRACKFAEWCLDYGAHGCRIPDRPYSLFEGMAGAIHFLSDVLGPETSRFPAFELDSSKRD
METHOD NOTES: Competition binding with [^3H]-ABA on human granulocytes
TEST SETTINGS: displaces 50 % of radioligand specific binding; 95 % confidence intervals 0.48 nM to 1.58 nM
Method: Human granulocytes (7 x 10^6 per point), after ON incubation in complete DMEM/F12, were incubated in triplicate at 25 °C for 60 min in 100 µl of HBSS spiked with glucose 10 mM in the presence either of an excess of unlabeled ABA (1 mM) (in order to determine the non-specific binding rate) or of increasing concentrations of compound prepared according to example 1 (from 0,01 nM up to 100 µM). […]
RECORDED METRIC: IC50

The recorded IC50 for entry CC(=C/C(=O)O)/C=C/C1(O)C(C)(C)CC(=O)C2OC21C (stereo not shown) equals 870 pM

====

Test system: granulocytes
METHOD NOTES: Inhibition of ABA-induced chemotaxis (granulocyte migration, ChemoTx)
Assay type: cell-based, human
TEST SETTINGS: Homo sapiens
RECORDED METRIC: IC50

The recorded IC50 for entry CC(=C/C(=O)O)/C=C/C1(O)C(C)(C)CC(=O)C2OC21C (stereo not shown) equals ~1 nM
